Measured % degradation in 24 h when incubated with liver microsomes, listed per entry for reference.
Test: Stability in liver microsomes
Type: in vitro ADME, human
Settings: 2 μM, 37° C., 24 h
Where a SMILES comes first, the peptide text is derived from it. [ ]: non-standard residue; d: D form. ξ: configuration not given here. ξαMeBip(2'-Et,4'-OMe) = CCc1cc(OC)ccc1-c1ccc(CC(C)(N)C(=O)O)cc1; ξBip(2'-Et-4'-OMe) = CCc1cc(OC)ccc1-c1ccc(CC(N)C(=O)O)cc1; ξαMePhe(2,6-F2) = CC(N)(Cc1c(F)cccc1F)C(=O)O; ξαMe(hhPhe) = CC(N)(CCCc1ccccc1)C(=O)O; ξαMePhe(2-F) = CC(N)(Cc1ccccc1F)C(=O)O; ξhhPhe = NC(CCCc1ccccc1)C(=O)O; ξαMeD = CC(N)(CC(=O)O)C(=O)O; ξαMeS = CC(N)(CO)C(=O)O; Aib = CC(C)(N)C(=O)O
Field format: number, assumed %, no unit text.

Examples with answers:
{"Compound": "CCc1cc(OC)ccc1-c1ccc(CC(C)(NC(=O)[C@H](CC(=O)O)NC(=O)C(C)(CO)NC(=O)[C@@H](NC(=O)C(C)(Cc2c(F)cccc2F)NC(=O)[C@@H](NC(=O)CNC(=O)[C@H](CCC(N)=O)NC(=O)[C@H](C)NC(=O)[C@H](Cc2c[nH]cn2)NC(=O)[C@@H](N)C(C)C)[C@@H](C)O)[C@@H](C)O)C(=O)NC(CCCc2ccccc2)C(N)=O)cc1 (some centres unmarked) [compound 50] (H-VHAQGT[ξαMePhe(2,6-F2)]T[ξαMeS]D[ξαMeBip(2'-Et,4'-OMe)][ξhhPhe]-NH2)", "Readout number": 100}
{"Compound": "CCc1cc(OC)ccc1-c1ccc(CC(NC(=O)C(C)(CC(=O)O)NC(=O)C(C)(CO)NC(=O)[C@@H](NC(=O)[C@H](Cc2ccccc2)NC(=O)[C@@H](NC(=O)CNC(=O)[C@H](CCC(N)=O)NC(=O)[C@H](C)NC(=O)[C@H](Cc2c[nH]cn2)NC(=O)[C@@H](N)C(C)C)[C@@H](C)O)[C@@H](C)O)C(=O)NC(C)(CCCc2ccccc2)C(N)=O)cc1 (some centres unmarked) [compound 108] (H-VHAQGTFT[ξαMeS][ξαMeD][ξBip(2'-Et-4'-OMe)][ξαMe(hhPhe)]-NH2)", "Readout number": 33}
{"Compound": "CCc1cc(OC)ccc1-c1ccc(CC(C)(NC(=O)C(C)(CC(=O)O)NC(=O)[C@H](CO)NC(=O)[C@@H](NC(=O)[C@H](Cc2ccccc2)NC(=O)[C@@H](NC(=O)CNC(=O)[C@H](CCC(=O)O)NC(=O)[C@H](C)NC(=O)[C@H](Cc2c[nH]cn2)NC(=O)[C@@H](N)C(C)C)[C@@H](C)O)[C@@H](C)O)C(=O)NC(CCCc2ccccc2)C(N)=O)cc1 (some centres unmarked) [compound 62] (H-VHAEGTFTS[ξαMeD][ξαMeBip(2'-Et,4'-OMe)][ξhhPhe]-NH2)", "Readout number": 35}
{"Compound": "CCc1cc(OC)ccc1-c1ccc(CC(C)(NC(=O)C(C)(CC(=O)O)NC(=O)[C@H](CO)NC(=O)[C@@H](NC(=O)C(C)(Cc2c(F)cccc2F)NC(=O)[C@@H](NC(=O)CNC(=O)[C@H](CCC(N)=O)NC(=O)C(C)(C)NC(=O)[C@H](Cc2c[nH]cn2)NC(=O)[C@@H](N)C(C)C)[C@@H](C)O)[C@@H](C)O)C(=O)NC(CCCc2ccccc2)C(N)=O)cc1 (some centres unmarked) [compound 75] (H-VH[Aib]QGT[ξαMePhe(2,6-F2)]TS[ξαMeD][ξαMeBip(2'-Et,4'-OMe)][ξhhPhe]-NH2)", "Readout number": 83}

Attention now turns to another entry.
Can you share its % degradation in 24 h when incubated with liver microsomes? I mean this compound: CCc1cc(OC)ccc1-c1ccc(CC(NC(=O)[C@H](CC(=O)O)NC(=O)[C@H](CO)NC(=O)[C@@H](NC(=O)C(C)(Cc2ccccc2F)NC(=O)[C@@H](NC(=O)CNC(=O)[C@H](CCC(N)=O)NC(=O)[C@H](C)NC(=O)[C@H](Cc2c[nH]cn2)NC(=O)[C@@H](N)C(C)C)[C@@H](C)O)[C@@H](C)O)C(=O)NC(C)(CCCc2ccccc2)C(N)=O)cc1 (some centres unmarked) [compound 92] (H-VHAQGT[ξαMePhe(2-F)]TSD[ξBip(2'-Et-4'-OMe)][ξαMe(hhPhe)]-NH2)
84
